settings: in dichloromethane, 283.15 K
test.readout: solubility (mole fraction)

[[record]]
smiles_repr = "O=C(O)/C=C/C(=O)O.OCCOCCN1CCN(C2=Nc3ccccc3Sc3ccccc32)CC1.OCCOCCN1CCN(C2=Nc3ccccc3Sc3ccccc32)CC1"
test_readout = "solubility (mole fraction)"
recorded_measurement = 0.000174


###

settings: in isopropyl acetate, 283.15 K
test.readout: solubility (mole fraction)

[[record]]
smiles_repr = "O=C(O)/C=C/C(=O)O.OCCOCCN1CCN(C2=Nc3ccccc3Sc3ccccc32)CC1.OCCOCCN1CCN(C2=Nc3ccccc3Sc3ccccc32)CC1"
recorded_measurement = "3.95e-05"


###

settings: in MIBK, 298.15 K
test.readout: solubility (mole fraction)

[[record]]
smiles_repr = "O=C(O)/C=C/C(=O)O.OCCOCCN1CCN(C2=Nc3ccccc3Sc3ccccc32)CC1.OCCOCCN1CCN(C2=Nc3ccccc3Sc3ccccc32)CC1"
recorded_measurement = 0.000224


###

conditions: in toluene, 308.15 K
test.readout: solubility (mole fraction)

[[record]]
smiles_repr = "O=C(O)/C=C/C(=O)O.OCCOCCN1CCN(C2=Nc3ccccc3Sc3ccccc32)CC1.OCCOCCN1CCN(C2=Nc3ccccc3Sc3ccccc32)CC1"
test_readout = "solubility (mole fraction)"
recorded_measurement = "7.09e-05"


###

settings: in ethyl formate, 308.15 K
test.readout: solubility (mole fraction)

[[record]]
smiles_repr = "O=C(O)/C=C/C(=O)O.OCCOCCN1CCN(C2=Nc3ccccc3Sc3ccccc32)CC1.OCCOCCN1CCN(C2=Nc3ccccc3Sc3ccccc32)CC1"
test_readout = "solubility (mole fraction)"
recorded_measurement = 0.00024


###

details: in ethyl formate, 303.15 K
test.readout: solubility (mole fraction)

[[record]]
smiles_repr = "O=C(O)/C=C/C(=O)O.OCCOCCN1CCN(C2=Nc3ccccc3Sc3ccccc32)CC1.OCCOCCN1CCN(C2=Nc3ccccc3Sc3ccccc32)CC1"
test_readout = "solubility (mole fraction)"
recorded_measurement = 0.000197


###

details: in MIBK, 283.15 K
test.readout: solubility (mole fraction)

[[record]]
smiles_repr = "O=C(O)/C=C/C(=O)O.OCCOCCN1CCN(C2=Nc3ccccc3Sc3ccccc32)CC1.OCCOCCN1CCN(C2=Nc3ccccc3Sc3ccccc32)CC1"
recorded_measurement = 0.000128


###

conditions: in 2-butanone, 308.15 K
test.readout: solubility (mole fraction)

[[record]]
smiles_repr = "O=C(O)/C=C/C(=O)O.OCCOCCN1CCN(C2=Nc3ccccc3Sc3ccccc32)CC1.OCCOCCN1CCN(C2=Nc3ccccc3Sc3ccccc32)CC1"
recorded_measurement = 0.000382


###

conditions: in n-hexane, 293.15 K
test.readout: solubility (mole fraction)

[[record]]
smiles_repr = "O=C(O)/C=C/C(=O)O.OCCOCCN1CCN(C2=Nc3ccccc3Sc3ccccc32)CC1.OCCOCCN1CCN(C2=Nc3ccccc3Sc3ccccc32)CC1"
recorded_measurement = "2.17e-05"


###

conditions: in isopropyl acetate, 293.15 K
test.readout: solubility (mole fraction)

[[record]]
smiles_repr = "O=C(O)/C=C/C(=O)O.OCCOCCN1CCN(C2=Nc3ccccc3Sc3ccccc32)CC1.OCCOCCN1CCN(C2=Nc3ccccc3Sc3ccccc32)CC1"
recorded_measurement = "5.77e-05"


###

settings: in n-propanol, 288.15 K
test.readout: solubility (mole fraction)

[[record]]
smiles_repr = "O=C(O)/C=C/C(=O)O.OCCOCCN1CCN(C2=Nc3ccccc3Sc3ccccc32)CC1.OCCOCCN1CCN(C2=Nc3ccccc3Sc3ccccc32)CC1"
test_readout = "solubility (mole fraction)"
recorded_measurement = 0.000317


Cited source: BigSolDB 2.1
